studyTarget: PTP1B (human recombinant) (Homo sapiens, UniProt P18031)
Sequence (P18031 whole entry): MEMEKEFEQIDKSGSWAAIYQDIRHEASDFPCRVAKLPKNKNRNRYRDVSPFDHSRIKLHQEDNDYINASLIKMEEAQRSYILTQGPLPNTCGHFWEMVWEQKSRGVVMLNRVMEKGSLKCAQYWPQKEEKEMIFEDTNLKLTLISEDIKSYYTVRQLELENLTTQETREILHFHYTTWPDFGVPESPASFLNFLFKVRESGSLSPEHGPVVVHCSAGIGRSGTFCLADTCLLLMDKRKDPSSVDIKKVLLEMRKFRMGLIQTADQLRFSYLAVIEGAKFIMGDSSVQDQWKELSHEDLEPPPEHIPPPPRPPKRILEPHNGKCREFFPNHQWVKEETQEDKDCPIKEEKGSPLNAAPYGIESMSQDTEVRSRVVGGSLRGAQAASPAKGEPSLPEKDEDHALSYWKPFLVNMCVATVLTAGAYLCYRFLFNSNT
testProtocol: PTP1B inhibitory assay with pNPP substrate, with Dixon and Lineweaver-Burk kinetics
setupConditions: determined by the Dixon plot; read-out: Protein Tyrosine Phosphatase 1B Ki Value
pKi: −log10 of the molar value.

molecule: CC(C)=CC(=O)O[C@H]1[C@H](O)c2cc3ccc(=O)oc3cc2OC1(C)C [Pd-C-I]
studyTarget: PTP1B (human recombinant) (Homo sapiens, UniProt P18031)
pKi: 5.21
//
molecule: CC(C)=CC(=O)O[C@@H]1c2cc3ccc(=O)oc3cc2OC(C)(C)[C@H]1O [Pd-C-II]
studyTarget: PTP1B (human recombinant) (Homo sapiens, UniProt P18031)
pKi: 5.01
//
molecule: CC1(C)Oc2cc3oc(=O)ccc3cc2[C@@H](O)[C@@H]1O [(+)-trans-decursidinol]
studyTarget: PTP1B (human recombinant) (Homo sapiens, UniProt P18031)
pKi: 5.55
//
molecule: C/C=C\C(=O)O[C@H]1[C@H](OC(C)=O)c2cc3ccc(=O)oc3cc2OC1(C)C [Pd-C-III]
studyTarget: PTP1B (human recombinant) (Homo sapiens, UniProt P18031)
pKi: 4.79

###

studyTarget: yeast α-glucosidase (Saccharomyces cerevisiae)
Sequence (P53341 whole entry): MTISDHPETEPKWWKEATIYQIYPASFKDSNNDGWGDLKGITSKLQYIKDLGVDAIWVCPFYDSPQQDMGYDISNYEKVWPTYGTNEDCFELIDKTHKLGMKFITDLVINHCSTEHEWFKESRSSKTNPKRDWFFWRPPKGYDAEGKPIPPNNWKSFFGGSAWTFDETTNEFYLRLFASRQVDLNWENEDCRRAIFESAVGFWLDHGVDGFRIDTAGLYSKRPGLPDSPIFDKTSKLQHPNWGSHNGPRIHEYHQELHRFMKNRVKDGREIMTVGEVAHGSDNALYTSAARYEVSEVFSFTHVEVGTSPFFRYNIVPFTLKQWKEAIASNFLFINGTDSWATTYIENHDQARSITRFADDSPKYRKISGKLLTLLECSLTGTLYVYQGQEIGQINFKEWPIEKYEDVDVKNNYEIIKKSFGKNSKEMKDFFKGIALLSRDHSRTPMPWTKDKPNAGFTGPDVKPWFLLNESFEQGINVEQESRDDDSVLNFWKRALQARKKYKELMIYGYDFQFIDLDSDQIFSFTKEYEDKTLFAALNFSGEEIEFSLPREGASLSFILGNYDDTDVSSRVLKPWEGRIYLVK
testProtocol: α-Glucosidase inhibitory assay with pNPG substrate, with Dixon and Lineweaver-Burk kinetics
Assay type: biochemical
setupConditions: determined by Dixon and Lineweaver-Burk plots

chemSmiles: CC(C)=CC(=O)O[C@@H]1c2cc3ccc(=O)oc3cc2OC(C)(C)[C@H]1O
α-Glucosidase Inhibition Type: Mixed
//
chemSmiles: CC(C)=CC(=O)O[C@H]1[C@H](O)c2cc3ccc(=O)oc3cc2OC1(C)C
α-Glucosidase Inhibition Type: Mixed

###

studyTarget: PTP1B (human recombinant) (Homo sapiens, UniProt P18031)
Construct: purchased Biomol International LP (Plymouth Meeting, Pennsylvania, USA)
testProtocol: PTP1B inhibitory assay with pNPP substrate, with Dixon and Lineweaver-Burk kinetics
Assay type: biochemical
setupConditions: determined by Dixon and Lineweaver-Burk plots
quantity: Protein Tyrosine Phosphatase 1B Inhibition Type

molecule: CC(C)=CC(=O)O[C@H]1[C@H](O)c2cc3ccc(=O)oc3cc2OC1(C)C
measuredValue: Competitive

molecule: CC1(C)Oc2cc3oc(=O)ccc3cc2[C@@H](O)[C@@H]1O [(+)-trans-decursidinol]
measuredValue: Competitive

molecule: C/C=C\C(=O)O[C@H]1[C@H](OC(C)=O)c2cc3ccc(=O)oc3cc2OC1(C)C
measuredValue: Mixed

molecule: CC(C)=CC(=O)O[C@@H]1c2cc3ccc(=O)oc3cc2OC(C)(C)[C@H]1O
measuredValue: Competitive

###

Below, each of the compounds is paired with its reported pIC50 value.
studyTarget: PTP1B (human recombinant) (Homo sapiens, UniProt P18031)
testProtocol: PTP1B inhibitory assay with pNPP substrate, with Dixon and Lineweaver-Burk kinetics
setupConditions: pNPP substrate; mean ± SEM of triplicate; read-out: Protein Tyrosine Phosphatase 1B IC50
pIC50: −log10 of the molar value.
quantity: pIC50

compound: CC(C)=CC(=O)O[C@H]1[C@H](O)c2cc3ccc(=O)oc3cc2OC1(C)C
quantity: pIC50
measuredValue: 5.36
//
compound: CC1(C)Oc2cc3oc(=O)ccc3cc2[C@@H](O)[C@@H]1O [(+)-trans-decursidinol]
quantity: pIC50
measuredValue: 5.63
//
compound: CC(C)=CC(=O)O[C@@H]1c2cc3ccc(=O)oc3cc2OC(C)(C)[C@H]1O
quantity: pIC50
measuredValue: 5.21
//
compound: C/C=C\C(=O)O[C@H]1[C@H](OC(C)=O)c2cc3ccc(=O)oc3cc2OC1(C)C
quantity: pIC50
measuredValue: 4.92

Ref: paper PMC7919472
